This listing pairs compounds with measured TGI.
System: OVCAR-8 ovarian
method.summary: NCI tumour cell line growth inhibition, 48 h

Answered examples (3):
QUERY: Could you tell me which TGI is on file for COc1ccc(OC2OC(CO)C(O)C(O)C2O)cc1 (configuration not stated) ?
RESULT: > 100 µM

QUERY: Now give it for COC(=O)/C=C1/OC(c2ccc(C)cc2C)=CC1=O too.
RESULT: 37.4 µM

QUERY: Now give it for Cn1c(-c2cccs2)cc(-c2ccsc2)c1-c1cccs1 too.
RESULT: > 100 µM

Next:
QUERY: Could you tell me which TGI is on file for O=C1C(CO)=C[C@@H](O)[C@H]2O[C@@H]12 ?
RESULT: > 100 µM

QUERY: Now give it for Cc1cccc2c(N=Nc3ccccc3[N+](=O)[O-])c(O)[nH]c12 too.
RESULT: > 38.2 µM

QUERY: Now give it for N=C(N)SCCN1CCCCC1 too.
RESULT: > 100 µM

QUERY: Now give it for O=c1cc(-c2ccc3ccccc3c2)[nH]c2ncccc12 too.
RESULT: > 100 µM

QUERY: Now give it for COc1ccc(-c2cc(=O)c3ccc(F)cc3[nH]2)cc1 too.
RESULT: > 100 µM

QUERY: Now give it for CN(C)CCC(=O)N1CCc2c([nH]c3ccccc23)C1c1cccnc1 (configuration not stated) too.
RESULT: > 100 µM

QUERY: Now give it for N#Cc1nc(-c2ccc(-c3nc(C#N)c(N)o3)cc2)oc1N too.
RESULT: > 10 µM

QUERY: Now give it for Cc1[nH]c(=O)nc(N/N=C/c2ccc(Cl)cc2)c1C(=O)Nc1ccc(Cl)cc1 too.
RESULT: 37.5 µM

QUERY: Now give it for Cc1cccc(/C=C2/C(=O)Nc3ccccc32)n1 too.
RESULT: > 80.3 µM

----------
This listing pairs compounds with measured GI50.
Test system: TK-10 renal
method.summary: NCI tumour cell line growth inhibition, 48 h

Answered examples (4):
QUERY: Could you tell me which GI50 is on file for CCOC(=O)Nc1ccc(C(=O)/C=C/c2ccccc2)cc1 ?
RESULT: 28.9 µM

QUERY: Now give it for C[n+]1cc2cc3c(cc2c2ccccc21)OCO3 too.
RESULT: 8.33 µM

QUERY: Now give it for O=C(Nc1cc(C(F)(F)F)cc(C(F)(F)F)c1)Nc1ccc(OCc2nnc(-c3ccc(Cl)cc3)o2)c(F)c1 too.
RESULT: 4.39 µM

QUERY: Now give it for Cn1ccc2c3c(=O)cc[nH]c3ccc21 too.
RESULT: > 100 µM

From here, focus on the item given below.
QUERY: Could you tell me which GI50 is on file for c1ccc2c(-c3cnn4cc(-c5ccc(N6CCNCC6)cc5)cnc34)ccnc2c1 ?
RESULT: 1.76 µM

----------
This listing pairs molecules with measured GI50.
Test system: A498 renal
method.summary: NCI tumour cell line growth inhibition, 48 h

Answered examples (3):
QUERY: Could you tell me which GI50 is on file for O=C(Nc1cc(C(F)(F)F)cc(C(F)(F)F)c1)Nc1ccc(OCc2nnc(-c3ccc(Cl)cc3)o2)c(F)c1 ?
RESULT: 1.91 µM

QUERY: Now give it for COc1cc2c(c(OC)c1OC)C(=O)c1c-2n(CCCN=[N+]=[N-])c(=O)c2cc([N+](=O)[O-])ccc12 too.
RESULT: 14 µM

QUERY: Now give it for NC(=S)N/N=C/c1ccc(OC(=O)COc2ccccc2)cn1 too.
RESULT: 14.8 µM

From here, focus on the item given below.
QUERY: Could you tell me which GI50 is on file for CNC(C)[C@H]1CCC2C3CCC4C[C@@H](N(C)C(=O)c5ccccc5)CC[C@]4(C)C3CC[C@@]21C (some centres undefined) ?
RESULT: 1.65 µM

----------
Test system: SK-MEL-5 melanoma
method.summary: NCI tumour cell line growth inhibition, 48 h
This listing pairs molecules with measured TGI.

Answered examples (2):
QUERY: Could you tell me which TGI is on file for Clc1ccc(-c2nc(C(Cl)Cl)nc3cc(-c4ccccc4)nn23)cc1 ?
RESULT: > 50 µM

QUERY: Now give it for Nc1ncc(N)c(NCC2(CO)CC(CCc3ccccc3)C2)n1 (configuration not stated) too.
RESULT: 14 µM

Next:
QUERY: Could you tell me which TGI is on file for CC(=O)N1N=C(c2ccc(Nc3nc(Nc4ccc(F)cc4)nc(Nc4ccc(Cl)cc4)n3)cc2)CC1c1ccc(N(C)C)cc1 (configuration not stated) ?
RESULT: 19.3 µM

QUERY: Now give it for COC(=O)C1=C(C(=O)OC)C(OO)(c2ccccc2)OC1=O (configuration not stated) too.
RESULT: > 100 µM

QUERY: Now give it for CN(C)CCN=C1Nc2ccccc2C(=O)N2CSCC12 (configuration not stated) too.
RESULT: > 100 µM

QUERY: Now give it for CNC(=O)OCc1nc(N=[N+]=[N-])n(C)c1COC(=O)NC too.
RESULT: > 10 µM

QUERY: Now give it for COc1ccc(-c2cc(=O)c3ccc(F)cc3[nH]2)cc1 too.
RESULT: > 100 µM

----------
This listing pairs compounds with measured TGI.
Test system: NCI-H226 lung
method.summary: NCI tumour cell line growth inhibition, 48 h

Answered examples (3):
QUERY: Could you tell me which TGI is on file for COC(=O)C1Cc2c([nH]c3ccccc23)-c2[nH]c3ccccc3c2CC(NC(C)=O)C(=O)NCC(=O)NCC(=O)N1 (stereo unspecified) ?
RESULT: > 100 µM

QUERY: Now give it for NC(=NCCO)c1ccc(N2CCCN(c3ccc(C(N)=NCCO)cc3)CC2)cc1 too.
RESULT: > 100 µM

QUERY: Now give it for CCOc1ccc(N=Nc2ccc(-c3ccc(N=Nc4c(O)ccc5cc(S(=O)(=O)O)cc(S(=O)(=O)O)c45)cc3)cc2)cc1 too.
RESULT: > 100 µM

Next:
QUERY: Could you tell me which TGI is on file for CC(C)(C)OC(=O)NC(Cc1ccc(OCc2ccccc2)cn1)C(N)=O (stereo unspecified) ?
RESULT: > 100 µM

QUERY: Now give it for CCCC(CCC)Oc1ccc(CCCC2=C(O)c3ccccc3C(=O)C2=O)cc1 too.
RESULT: 20.8 µM

QUERY: Now give it for CC(C)(C)Cc1cc(O)ccc1O too.
RESULT: > 100 µM

QUERY: Now give it for N#CCN1CCN(CC#N)CCN(CC#N)CCN(CC#N)CC1 too.
RESULT: > 100 µM

QUERY: Now give it for Cc1ccccc1NC(=O)C(=O)CC(=O)C1CCOC1=O (stereo unspecified) too.
RESULT: > 100 µM

----------
Test system: RPMI-8226 leukemia
method.summary: NCI tumour cell line growth inhibition, 48 h
quantity.kind: TGI

QUERY: Could you tell me which TGI is on file for CC(=O)OCC1OC(n2c(=S)n(-c3ccccc3)c(=O)c3cc(Br)ccc32)C(OC(C)=O)C(OC(C)=O)C1OC(C)=O (centres undefined) ?
RESULT: > 100 µM

QUERY: Now give it for COc1ccc(OC2OC(CO)C(O)C(O)C2O)cc1 (centres undefined) too.
RESULT: > 100 µM

QUERY: Now give it for COc1cc(/C=C2\C(=O)N(c3ccc(NC(C)=O)cc3)C(c3ccccc3)S2(=O)=O)cc(OC)c1OC (centres undefined) too.
RESULT: > 100 µM

QUERY: Now give it for Cc1cc(C)nc(NS(=O)(=O)c2ccc(Nc3nnc(/C=C/c4c(O)ccc5ccccc45)c(=O)n3N)cc2)n1 too.
RESULT: > 100 µM

QUERY: Now give it for CC(CC(C)[C@H]1CCC2[C@H]3C(CC(=O)[C@@]21C)[C@@]1(C)CCC(O)C[C@H]1C[C@@H]3O)C(=O)O (some centres undefined) too.
RESULT: > 100 µM

Next:
QUERY: Could you tell me which TGI is on file for CCCC(CCC)Oc1ccc(CCCC2=C(O)c3ccccc3C(=O)C2=O)cc1 ?
RESULT: 7.49 µM

QUERY: Now give it for O=C1c2ccccc2C(=O)c2sc(Nc3ccc(Cl)cc3)nc21 too.
RESULT: 4.73 µM

QUERY: Now give it for CCOC(=O)N1CCc2cc(OC)c(OC)cc2/C1=C/c1ccc(OC)c(OC)c1 too.
RESULT: 56.5 µM

QUERY: Now give it for O=C1Nc2ccccc2/C1=N/N1C(=O)/C(=C/c2ccccc2S)N=C1c1ccccc1 too.
RESULT: > 100 µM

----------
Tested on: OVCAR-4 ovarian
method.summary: NCI tumour cell line growth inhibition, 48 h; in the data active = GI50 below about 0.43 µM; inactive = the rest
Please state which outcome applies, choosing from true = active, false = inactive

Example entries begin here.
QUERY: For this compound, state the assay outcome: Cn1ccc2c3c(=O)cc[nH]c3ccc21
RESULT: false

QUERY: Now give it for O=C(O)c1cc2cc(O)ccc2[nH]1 too.
RESULT: false

Next:
QUERY: For this compound, state the assay outcome: O=C([CH-]C(=O)c1ccccc1)c1ccccc1.[CH3-].[CH3-].[CH3-].[Sn+4]
RESULT: false

QUERY: Now give it for C=C1[C@@H](O)C[C@H]2C(C)(C)C[C@H](Cl)C[C@]2(C)[C@H]1C[C@H](O)[C@H]1CC(=O)NC1=O too.
RESULT: true
